tested on: Klebsiella aerogenes DSM 30053; test: fold change of Cadaverine concentration vs plate DMSO controls (fold change (ratio)); higher = more amine produced, active = hit call of the paper (significant change in both replicates, either direction); conditions: 20 µM; incubation time: 27 h, anaerobic, 37 °C
Rule: Yes for fold change of Cadaverine concentration not less than 1, No for anything less.

Solved cases below.
Could you tell me if the measured fold change of Cadaverine concentration of N#CC(CCc1ccc(Cl)cc1)(Cn1cncn1)c1ccccc1 (stereo unspecified) reaches 1 or more?
No

Quick check, fold change of Cadaverine concentration >= 1? C[N+](C)(C)CCCCCCCCCC[N+](C)(C)C [Decamethonium bromide]
Yes

Has "Oc1cc(Cl)ccc1Oc1ccc(Cl)cc1Cl" a recorded fold change of Cadaverine concentration greater than or equal to 1?
No

# bool: fold change of Cadaverine concentration of CCCCC(C#N)(Cn1cncn1)c1ccc(Cl)cc1 (stereo unspecified) >= 1
Yes

Please find the next molecule below.
Test whether the molecule "CNC(=O)CSP(=S)(OC)OC" records fold change of Cadaverine concentration of 1 or higher.
Yes

----------
tested on: Clostridium sporogenes DSM 1664; assay: fold change of Tryptamine concentration vs plate DMSO controls (fold change (ratio)); higher = more amine produced, active = hit call of the paper (significant change in both replicates, either direction); conditions: 20 µM; incubation time: 27 h, anaerobic, 37 °C
Where a name gives a salt, the structure may show the parent alone.
observedProperty: fold change of Tryptamine concentration
In your answer, state the number alone without any accompanying words.

The following compounds have reported results that may help.
Answer with the recorded fold change of Tryptamine concentration of "CC(C)(C)c1ccc(CSc2cnn(C(C)(C)C)c(=O)c2Cl)cc1" only.
1.02

Provide only the value of recorded fold change of Tryptamine concentration for N#Cc1nn(-c2c(Cl)cc(C(F)(F)F)cc2Cl)c(N)c1[S+]([O-])C(F)(F)F (centres undefined) [Fipronil]
1.05

Identify fold change of Tryptamine concentration associated with the compound COCc1cnc(C2=NC(C)(C(C)C)C(=O)N2)c(C(=O)O)c1 (centres undefined)
1.11

Read the entry CN1C[C@H](C(=O)N[C@]2(C)O[C@@]3(O)[C@@H]4CCCN4C(=O)[C@H](Cc4ccccc4)N3C2=O)C[C@@H]2c3cccc4[nH]cc(c34)C[C@H]21 [Dihydroergotamine tartrate] and write its reported fold change of Tryptamine concentration.
0.928

In one line, give reported fold change of Tryptamine concentration of the entry CO[C@]12C[C@@H](COC(=O)c3cncc(Br)c3)CN(C)[C@@H]1Cc1cn(C)c3cccc2c13 [Nicergoline] .
0.994

Provide fold change of Tryptamine concentration value for the following compound: C[C@]12CCC(=O)C=C1C=C[C@@H]1[C@@H]2CC[C@@]2(C)[C@H]1CC[C@@]2(O)CCC(=O)O [Canrenoic acid potassium salt]
1.05

Give recorded fold change of Tryptamine concentration. "CCNc1nc(Cl)nc(NC(C)C)n1"
0.98

Given COc1ccc(OC)c(C(O)C(C)N)c1 (centres undefined) [Methoxamine hydrochloride] , respond with its fold change of Tryptamine concentration.
1.07

Continuing:
Please list fold change of Tryptamine concentration recorded for the compound Cc1cccc(C)c1NC1=NCCCS1 [Xylazine]
1.01

Given the compound O=C(NC(=O)c1c(F)cccc1F)Nc1ccc(OC(F)(F)C(F)OC(F)(F)F)c(Cl)c1 (centres undefined) , write its reported fold change of Tryptamine concentration.
0.981

State its fold change of Tryptamine concentration for this compound: "Cc1cc(C)c(C2=C(OC(=O)CC(C)(C)C)C3(CCCC3)OC2=O)c(C)c1"
0.972

Specify measured fold change of Tryptamine concentration for "COc1cc(OC)nc(NC(=O)NS(=O)(=O)c2ncccc2C(=O)N(C)C)n1" .
0.975

Tell me its fold change of Tryptamine concentration given CC(=O)O[C@H]1CC[C@@]2(C)C(=CC[C@@H]3[C@@H]2CC[C@]2(C)C(=O)CC[C@@H]32)C1 [Dehydroisoandosterone 3-acetate] as the entry.
0.937

Hello, please tell me recorded fold change of Tryptamine concentration for this one: "CCOP(=S)(OCC)Oc1cc(C)nc(C(C)C)n1"
1.03

----------
The compounds listed here are annotated with their fold change of Cadaverine concentration.
test system: Klebsiella aerogenes DSM 30053; assay: fold change of Cadaverine concentration vs plate DMSO controls (fold change (ratio)); higher = more amine produced, active = hit call of the paper (significant change in both replicates, either direction); conditions: 20 µM; incubation time: 27 h, anaerobic, 37 °C
Where a name gives a salt, the structure may show the parent alone.
Form: value (number only, do not type unit).

Check Klebsiella aerogenes DSM 30053 data and give fold change of Cadaverine concentration for "C[C@]12CC[C@H](O)C[C@H]1CC[C@@H]1[C@@H]2CC[C@]2(C)[C@@H](C3=CC(=O)OC3)CC[C@]12O" .
0.989

---
# return fold change of Cadaverine concentration for "C[C@]12CC[C@H]3[C@@H](CCC4=CC(=O)CC[C@@H]43)[C@@H]1CC[C@@H]2O" , test system: Klebsiella aerogenes DSM 30053
0.999

Give Klebsiella aerogenes DSM 30053 fold change of Cadaverine concentration for the following compound: "CC(=NC#N)N(C)Cc1ccc(Cl)nc1"
0.992

GET fold change of Cadaverine concentration where system = Klebsiella aerogenes DSM 30053 and item = "C[C@]12CCC(=O)C(O)=C1CC[C@@H]1[C@@H]2CC[C@]2(C)C(=O)CC[C@@H]12"
0.981

# lookup: Klebsiella aerogenes DSM 30053 fold change of Cadaverine concentration, key = CC1C=CC=CCCC=CC=CC=CC=CC(OC2OC(C)C(O)C(N)C2O)CC2OC(O)(CC(O)C(O)CCC(O)CC(O)CC(O)CC(=O)OC(C)C(C)C1O)CC(O)C2C(=O)O (stereo not drawn)
1.01

Look up and report measured fold change of Cadaverine concentration (Klebsiella aerogenes DSM 30053) for the following compound: CNC(=O)Oc1ccc2c(c1)[C@]1(C)CCN(C)[C@@H]1N2C [Eserine hemisulfate salt]
0.975

State the measured fold change of Cadaverine concentration (Klebsiella aerogenes DSM 30053) of C[N+]12CCC(CC1)C(OC(=O)C(O)(c1ccccc1)c1ccccc1)C2 (stereo not drawn) [Clidinium bromide]
1

Give reported fold change of Cadaverine concentration for NC(=O)C[S+]([O-])C(c1ccccc1)c1ccccc1 (stereo not drawn) (Klebsiella aerogenes DSM 30053)
1

Look up Klebsiella aerogenes DSM 30053 data: fold change of Cadaverine concentration of CC(C1CC1)C(O)(Cn1cncn1)c1ccc(Cl)cc1 (mixture of isomers) , then report it.
0.995

Report value only: fold change of Cadaverine concentration, Klebsiella aerogenes DSM 30053, "Nc1ccncc1"
1

Name the recorded fold change of Cadaverine concentration of "COC(=O)N(OC)c1ccccc1COc1ccn(-c2ccc(Cl)cc2)n1" , assay system Klebsiella aerogenes DSM 30053.
1

Consider the compound "CCOP(=S)(OCC)Oc1cc(C)nc(C(C)C)n1" tested on Klebsiella aerogenes DSM 30053; state its fold change of Cadaverine concentration.
1

Report its fold change of Cadaverine concentration with Klebsiella aerogenes DSM 30053 as the test system: "COc1ccc(C(=O)N2CCCC2=O)cc1"
1.01

----------
tested on: Clostridium sporogenes DSM 1664; experiment: growth (OD595) fold change vs plate DMSO controls (fold change (ratio)); higher = more growth; conditions: 20 µM; incubation time: 27 h, anaerobic, 37 °C
observedProperty: growth
Reply with the value as a number alone.

Write down growth measured for item "C#CCN1C(=O)COc2cc(F)c(N3C(=O)C4=C(CCCC4)C3=O)cc21"
0.947

Name the recorded growth of the compound listed here: c1ccc2c(c1)-c1cccc3cccc-2c13 [Fluoranthene]
0.942

// Input: CN(C)C(=O)Oc1cccc([N+](C)(C)C)c1 [Neostigmine bromide] . Output its growth only.
0.939

Consider the compound "CC(C)OC(=O)Nc1cccc(Cl)c1" and give its recorded growth.
1.05

Hello, please tell me recorded growth for this one: C[C@]12CC[C@@H]3c4ccc(OC(=O)N(CCCl)CCCl)cc4CC[C@H]3[C@@H]1CC[C@@H]2O [Estramustine]
0.804

Quote growth reported for COc1ccccc1N [o-Anisidine] please.
1.07

----------
test system: Escherichia coli IAI1; test: growth (OD595) fold change vs plate DMSO controls (fold change (ratio)); higher = more growth; conditions: 20 µM; incubation time: 27 h, anaerobic, 37 °C
Think of 1 as a floor: if growth stands on it or above, it is condition met; beneath it, condition not met.

Identify whether the reported growth of the following molecule is 1 or greater: CC(C)CC(C)c1sccc1NC(=O)c1cn(C)nc1C(F)(F)F (stereo not given)
condition met

Further cases:
growth >= 1 for C[CH2][Hg][S]c1ccccc1C(=O)[O-].[Na+] [Thimerosal] ?
condition not met

Identify whether the reported growth of the following molecule is 1 or greater: "CNC(=O)ON=C(C)SC"
condition not met

Check if growth >= 1 (inclusive). Item: Cc1c(COC(=O)[C@@H]2[C@H](/C=C(\Cl)C(F)(F)F)C2(C)C)cccc1-c1ccccc1 (racemic)
condition met

Would you say "N#C/N=C1\SCCN1Cc1ccc(Cl)nc1" shows growth at minimum 1?
condition not met
